Tested on: neutrophils
Protocol Details: Neutrophil migration assay (embelin as chemotactic agent, ATPlite readout)
Format: cell-based
Condition Notes: Neutrophil; human neutrophils, embelin as chemotactic agent; read-out: Human Neutrophil migration inhibition IC50
Recorded IC50 for the following molecules

Below are worked cases with known answers.
Cc1cc(C#CC(C)C)ccc1-c1cn(CC2CCCCO2)nn1 (stereo not shown) : 1000 to 3000 nM
Cc1cc(N2CCN(Cc3ccccn3)CC2)ccc1-c1cn(C[C@H]2CCC(F)(F)CO2)nn1 (stereo in doubt) : 300 to 1000 nM
FC(F)(F)c1cc(C#CC2CC2)ccc1-c1cn(CC2CCCCO2)nn1 (stereo not shown) : 300 to 1000 nM
Cc1ccc(C#CC2CC2)cc1-c1cn(CC2CCCCO2)nn1 (stereo not shown) : 1000 to 3000 nM
Cc1cc(C#CCn2cc(-c3ccc(N(C)C)cc3)nn2)ccc1-c1cn(CC2CCCCO2)nn1 (stereo not shown) : ≤ 300 nM

Return reported IC50; argument: CC(C)Oc1cc(C#CC2CC2)ccc1-c1cn(CC2CCCCO2)nn1 (stereo not shown)
≤ 300 nM

Which IC50 is reported for this molecule? Cc1cc(N2CC(C)(N(C)Cc3ccccc3)C2)ccc1-c1cn(CC2CCCCO2)nn1 (stereo not shown)
≤ 300 nM
